test.target: long form of human GPR120 (Homo sapiens)
Construct: host or cells: PathHunter CHO-K1 GPR120 β-Arrestin Cell Line
Sequence (Q5NUL3 1-377 isoform Q5NUL3-1): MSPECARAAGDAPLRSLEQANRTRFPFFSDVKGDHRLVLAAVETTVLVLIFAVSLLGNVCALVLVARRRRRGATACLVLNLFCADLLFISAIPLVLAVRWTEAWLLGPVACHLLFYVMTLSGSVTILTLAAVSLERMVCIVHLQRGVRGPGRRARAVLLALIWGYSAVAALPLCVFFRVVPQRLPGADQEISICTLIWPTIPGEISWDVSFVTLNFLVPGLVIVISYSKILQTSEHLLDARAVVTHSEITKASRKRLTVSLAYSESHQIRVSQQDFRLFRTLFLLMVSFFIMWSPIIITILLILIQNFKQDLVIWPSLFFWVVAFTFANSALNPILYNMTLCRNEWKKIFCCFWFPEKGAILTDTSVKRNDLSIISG
test.protocol: Human GPR120 DiscoveRx PathHunter Beta-Arrestin Assay, Procedure β-arrestin A (3000 cells per well)
Type: cell-based
test.conditions: read-out: GPR120 B-arrestin A EC50
readout.name: EC50 (µM)

Illustrative cases are given below, each with its answer.
# input.smiles, test.target, measured
data = [
    ("CCOc1ccc2cc(CC)oc2c1COc1ccc(CCC(=O)O)c(C)c1C", "long form of human GPR120 (Homo sapiens)", 1.41),
    ("Cc1cc2cc(Cl)cc(COc3ccc(CCC(=O)O)c(C)c3C)c2s1", "long form of human GPR120 (Homo sapiens)", 0.629),
]

[A] CCCc1cc2cc(Cl)cc(COc3ccc(CCC(=O)O)c(C)c3C)c2o1
[B] CCc1cc2cc(OC(F)(F)F)cc(COc3ccc(CCC(=O)O)c4c3CCC4)c2o1
## Task // pick min by EC50: A , B Kindly state the label of the option you pick.
## Result A

###

test.target: Human GPR120 short form (Homo sapiens)
Construct: expressed in transfected cells
test.protocol: Human GPR120 in Calcium Flux Assay, Procedure Calcium A (2500 cells/well)
Type: cell-based
readout.name: EC50 (nM)

// known answers, use as guide
# compound, measured
records = [
    ("CCc1cc2cc(OC(F)(F)F)cc(COc3cc(CCC(C)C)c(CCC(=O)O)cc3F)c2o1 [Compound 51]", 392),
    ("Cc1c(CCC(=O)O)ccc(OCc2cc(F)cc3cc(C(F)(F)F)oc23)c1C [Compound 4]", 279),
    ("CCc1cc2cc(Br)cc(COc3ccc(CCC(=O)O)c(C)c3C)c2o1 [Compound 45]", 24),
]

[I] Cc1cc2cc(OC(F)F)cc(COc3ccc(CCC(=O)O)c(C)c3C)c2o1 [Compound 76]
[II] Cc1cc2cc(Cl)cc(COc3c(F)cc(CCCO)cc3F)c2s1 [Compound 93]
## Task // compare measured EC50 between I and II ; output the lower one // caller expects the label of the chosen entry
## Result I

[I] CCc1cc2cc(Cl)c(OCC(C)C)c(COc3ccc(CCC(=O)O)c(C)c3C)c2o1 [Compound 67]
[II] CCCc1cc2cc(OC(F)F)cc(COc3ccc(CCC(=O)O)c(C)c3C)c2o1 [Compound 77]
## Task Identify the entry with the smaller EC50: I or II . Returns: label corresponding to the selected item.
## Result II
(II: 28 nM, I: 93 nM)

[I] CCCc1cc2cc(OC(F)(F)F)cc(COc3ccc(CCC(=O)O)c(C)c3C)c2o1 [Compound 35]
[II] Cc1cc2cc(Cl)c(C)c(COc3ccc(CCC(=O)O)c(C)c3C)c2o1 [Compound 85]
[III] CCc1cc2cc(Cl)c(CC)c(COc3ccc(CCC(=O)O)c(C)c3C)c2o1 [Compound 61]
## Task Hey, quick one: sort these by EC50, largest value first please. The labels, placed in the requested order, form the answer.
## Result I, III, II
(I: 40 nM, III: 24 nM, II: 15 nM)

###

test.target: Human GPR120 short form (Homo sapiens, UniProt Q5NUL3)
Construct: expressed in transfected cells
Sequence (Q5NUL3 whole entry): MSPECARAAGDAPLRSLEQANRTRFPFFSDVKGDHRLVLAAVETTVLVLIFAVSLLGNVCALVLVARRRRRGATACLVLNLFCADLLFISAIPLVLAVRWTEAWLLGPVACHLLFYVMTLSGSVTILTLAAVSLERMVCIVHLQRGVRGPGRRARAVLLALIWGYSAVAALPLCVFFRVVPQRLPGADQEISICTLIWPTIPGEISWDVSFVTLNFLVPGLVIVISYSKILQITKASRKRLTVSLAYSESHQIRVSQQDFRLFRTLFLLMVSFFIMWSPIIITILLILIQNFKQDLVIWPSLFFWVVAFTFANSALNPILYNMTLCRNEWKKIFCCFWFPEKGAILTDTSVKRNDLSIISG
test.protocol: Human GPR120 in Calcium Flux Assay, Procedure Calcium B (4200 cells/well)
Assay type: cell-based
pEC50: −log10 of the molar value.
readout.name: pEC50

Examples from the recorded data:
# input.smiles, test.target, pEC50
data = [
    ("Cc1c(CCC(=O)O)ccc(OCc2cc(F)cc3sc(C(C)C)nc23)c1C", "Human GPR120 short form (Homo sapiens, UniProt Q5NUL3)", 6.97),
    ("Cc1c(CCC(=O)O)ccc(OCc2cc(Cl)cc3sc(C(C)C)nc23)c1C", "Human GPR120 short form (Homo sapiens, UniProt Q5NUL3)", 6.74),
]

[A] CCc1nc2c(COc3ccc(CCC(=O)O)c(C)c3C)cc(Cl)cc2s1
[B] Cc1c(CCC(=O)O)ccc(OCc2cc(F)cc3sc(C(C)(C)C)nc23)c1C
## Task API: POST /compare with A and B ; response names the item with higher pEC50. Returns: label corresponding to the selected item.
## Result A
(A: 7.42, B: 5.99)
